biological target: LOK/STK10 (Homo sapiens); assay: HotSpot Kinase Assay, LOK/STK10
Sequence (O94804 whole entry): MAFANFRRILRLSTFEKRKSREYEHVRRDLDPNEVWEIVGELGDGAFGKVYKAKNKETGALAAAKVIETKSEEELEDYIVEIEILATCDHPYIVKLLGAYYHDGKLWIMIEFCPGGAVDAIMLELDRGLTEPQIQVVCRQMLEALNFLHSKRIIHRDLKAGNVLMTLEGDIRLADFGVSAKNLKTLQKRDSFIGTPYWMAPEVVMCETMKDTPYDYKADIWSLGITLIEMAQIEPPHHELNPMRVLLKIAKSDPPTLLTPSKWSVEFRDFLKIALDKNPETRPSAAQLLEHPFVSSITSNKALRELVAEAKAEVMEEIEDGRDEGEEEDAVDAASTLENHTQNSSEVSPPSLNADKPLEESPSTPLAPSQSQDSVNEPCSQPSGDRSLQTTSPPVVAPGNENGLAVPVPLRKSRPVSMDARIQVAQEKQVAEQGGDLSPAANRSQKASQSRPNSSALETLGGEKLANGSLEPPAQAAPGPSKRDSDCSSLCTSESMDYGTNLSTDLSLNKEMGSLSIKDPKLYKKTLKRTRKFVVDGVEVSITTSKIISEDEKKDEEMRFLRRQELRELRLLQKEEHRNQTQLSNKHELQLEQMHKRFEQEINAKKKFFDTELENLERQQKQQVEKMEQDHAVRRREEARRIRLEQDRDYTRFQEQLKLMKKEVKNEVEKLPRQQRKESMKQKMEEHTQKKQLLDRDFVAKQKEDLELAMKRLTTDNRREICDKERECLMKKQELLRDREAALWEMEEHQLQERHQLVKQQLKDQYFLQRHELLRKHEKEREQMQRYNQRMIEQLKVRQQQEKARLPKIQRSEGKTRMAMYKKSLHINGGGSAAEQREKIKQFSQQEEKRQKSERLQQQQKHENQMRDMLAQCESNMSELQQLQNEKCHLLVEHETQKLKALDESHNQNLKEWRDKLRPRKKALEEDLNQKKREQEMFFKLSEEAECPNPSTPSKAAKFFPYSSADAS
measure: IC50

Here is how some compounds turned out for IC50.
COc1cc2c(Oc3ccc(NC(=O)C4(C(=O)Nc5ccc(F)cc5)CC4)cc3)ccnc2cc1OC(=O)N1CCNCC1(C)C [Compound 6-5]    100 to 1000 nM
COc1cc2c(Oc3ccc(NC(=O)C4(C(=O)Nc5ccc(F)cc5)CC4)cc3F)ncnc2cc1OC(=O)N1CCN(C)C[C@H]1C [Compound 9-6]    > 1000 nM
COc1cc2c(Oc3ccc(NC(=O)C4(C(=O)Nc5ccc(F)cc5)CC4)cc3)ccnc2cc1OC(=O)N1CCN(C)C[C@@H]1C [Compound 1-12]    100 to 1000 nM

Query block: Query IC50 for COc1cc2c(Oc3ccc(NC(=O)C4(C(=O)Nc5ccc(F)cc5)CC4)cc3)ccnc2cc1OC(=O)N1CC[C@@H](O)C1 [Compound 2-4]
Result block: 100 to 1000 nM

Query block: Query IC50 for COc1cc2c(Oc3ccc(NC(=O)C4(C(=O)Nc5ccc(F)cc5)CC4)cc3)ccnc2cc1OC(=O)N1CCC(F)(F)CC1 [Compound 1-13]
Result block: > 1000 nM

Query block: Query IC50 for COc1cc2c(Oc3ccc(NC(=O)C4(C(=O)Nc5ccc(F)cc5)CC4)cc3)ccnc2cc1OC(=O)N1CCCC1 [Compound 1-14]
Result block: > 1000 nM

Query block: Query IC50 for COc1cc2c(Oc3ccc(NC(=O)C4(C(=O)Nc5ccc(F)cc5)CC4)cc3)ccnc2cc1OC(=O)N(C)C [Compound 1-15]
Result block: 100 to 1000 nM

Query block: Query IC50 for COc1cc2c(Oc3ccc(NC(=O)C4(C(=O)Nc5ccc(F)cc5)CC4)cc3)ccnc2cc1OC(=O)N1C[C@@H]2C[C@H]1CN2C [Compound 2-7]
Result block: 100 to 1000 nM

Query block: Query IC50 for COc1cc2c(Oc3ccc(NC(=O)C4(C(=O)Nc5ccc(F)cc5)CC4)cc3)ncnc2cc1OC(=O)N1CCNC[C@H]1C [Compound 8-5]
Result block: > 1000 nM

###

IC50 for assorted compounds
target: EPHA2 (Homo sapiens, UniProt P29317)
Sequence (P29317 24-976): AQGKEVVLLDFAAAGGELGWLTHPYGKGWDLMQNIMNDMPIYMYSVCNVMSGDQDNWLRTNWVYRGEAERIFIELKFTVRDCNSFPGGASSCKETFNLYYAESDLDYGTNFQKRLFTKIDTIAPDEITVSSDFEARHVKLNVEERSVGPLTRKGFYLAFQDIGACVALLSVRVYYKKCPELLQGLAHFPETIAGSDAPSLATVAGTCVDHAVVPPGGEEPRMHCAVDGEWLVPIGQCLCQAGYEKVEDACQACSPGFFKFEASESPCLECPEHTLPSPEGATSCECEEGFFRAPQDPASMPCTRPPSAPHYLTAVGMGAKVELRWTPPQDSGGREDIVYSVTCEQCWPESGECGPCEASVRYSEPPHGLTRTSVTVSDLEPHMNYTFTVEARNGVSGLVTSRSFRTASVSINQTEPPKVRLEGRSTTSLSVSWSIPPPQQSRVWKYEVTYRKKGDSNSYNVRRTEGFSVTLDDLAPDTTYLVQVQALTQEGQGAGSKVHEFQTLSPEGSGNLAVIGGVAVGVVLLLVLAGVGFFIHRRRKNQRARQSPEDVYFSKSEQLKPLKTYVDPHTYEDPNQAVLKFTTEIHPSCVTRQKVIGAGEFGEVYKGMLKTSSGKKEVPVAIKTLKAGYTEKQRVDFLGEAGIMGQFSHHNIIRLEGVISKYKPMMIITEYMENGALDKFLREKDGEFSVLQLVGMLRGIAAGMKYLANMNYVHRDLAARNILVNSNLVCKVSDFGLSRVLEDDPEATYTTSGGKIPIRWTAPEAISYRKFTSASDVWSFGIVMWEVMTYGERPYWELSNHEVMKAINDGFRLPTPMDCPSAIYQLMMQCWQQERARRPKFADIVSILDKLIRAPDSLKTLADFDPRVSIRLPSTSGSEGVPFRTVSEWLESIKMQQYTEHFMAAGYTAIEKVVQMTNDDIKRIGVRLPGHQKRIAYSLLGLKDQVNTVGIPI

Here is how some compounds turned out for IC50.
COc1cc2c(Oc3ccc(NC(=O)C4(C(=O)Nc5ccc(F)cc5)CC4)cc3)ccnc2cc1OC(=O)N1CCN(C)CC1(C)C    100 to 1000 nM
COc1cc2nccc(Oc3ccc(NC(=O)C4(C(=O)Nc5ccc(F)cc5)CC4)cc3)c2cc1OC(=O)N1CCN(C)CC1    < 100 nM
COc1cc2c(Oc3ccc(NC(=O)C4(C(=O)Nc5ccc(F)cc5)CC4)cc3)ccnc2cc1OC(=O)N1CC[C@@H](O)C1    100 to 1000 nM
COc1cc2c(Oc3ccc(NC(=O)C4(C(=O)Nc5ccc(F)cc5)CC4)cc3F)ncnc2cc1OC(=O)N1CCN(C)C[C@H]1C    100 to 1000 nM

Query block: Query IC50 for "COc1cc2c(Oc3ccc(NC(=O)C4(C(=O)Nc5ccc(F)cc5)CC4)cc3)ccnc2cc1OC(=O)N1CCN(C)[C@@H](C)C1"
Result block: 100 to 1000 nM

Query block: Query IC50 for "COc1cc2c(Oc3ccc(NC(=O)C4(C(=O)Nc5ccc(F)cc5)CC4)cc3)ccnc2cc1OC(=O)N1[C@H](C)CN(C)C[C@@H]1C"
Result block: 100 to 1000 nM

Query block: Query IC50 for "COc1cc2c(Oc3ccc(NC(=O)C4(C(=O)Nc5ccc(F)cc5)CC4)cc3F)ncnc2cc1OC(=O)N1CCNC[C@H]1C"
Result block: 100 to 1000 nM

Query block: Query IC50 for "COc1cc2c(Oc3ccc(NC(=O)C4(C(=O)Nc5ccc(F)cc5)CC4)cc3)ccnc2cc1OC(=O)N1C[C@@H]2C[C@H]1CN2C"
Result block: < 100 nM

Query block: Query IC50 for "COc1cc2nccc(Oc3ccc(NC(=O)C4(C(=O)Nc5ccc(F)cc5)CC4)cc3)c2cc1OC(=O)N1CCNC[C@H]1C"
Result block: < 100 nM

Query block: Query IC50 for "COc1cc2c(Oc3ccc(NC(=O)C4(C(=O)Nc5ccc(F)cc5)CC4)cc3)ccnc2cc1OC(=O)N(C)C"
Result block: > 1000 nM

Recorded values, source patent US11358949B2.
